Biological target: T1, monomeric recombinant cynomologus monkey Notch3 extracellular domain (containing EGF like domains 1-12) … (cynomologus monkey)
T1 construct: domain: EGF like domains 1-12; also called monomeric rcNotch3
Assay: SPR BIAcore T100, antibody captured by anti-human IgG Fc, monomeric rcNotch3 analyte, 25 C
pKd: −log10 of the molar value.
Kindly return t if reported pKd is no lower than 8; return f if it is lower.

# Binder, Answer Label
records = [
    ("Hu4F11-70 (antibody, human IgG1, kappa, V domains shown, Humanized, human IgG1 kappa; Hv3-23 A28T S31H T62S heavy + Kv2D-29 N28H kappa) VH: EVQLLESGGGLVQPGGSLRLSCAASGFTFSHYDMSWVRQAPGKGLEWVSYISRGGGSTYYPDSVKGRFTISRDNSKNTLYLQMNSLRAEDTAVYYCGRHATTAYWYFDVWGQGTMVTVSS VL: DVVMTQTPLSLSVTPGQPASISCRSSQSLVHTHGNTYLHWYLQKPGQSPQLLIYKVSNRFSGVPDRFSGSGSGTDFTLKISRVEAEDVGVYFCSQSTHVPWTFGQGTKVEIKR", "t"),
    ("Hu4F11-76 (antibody, human IgG1, kappa, V domains shown, Humanized, human IgG1 kappa; Hv3-23 S31H T62S heavy + Kv2D-29 N28Y kappa) VH: EVQLLESGGGLVQPGGSLRLSCAASGFAFSHYDMSWVRQAPGKGLEWVSYISRGGGSTYYPDSVKGRFTISRDNSKNTLYLQMNSLRAEDTAVYYCGRHATTAYWYFDVWGQGTMVTVSS VL: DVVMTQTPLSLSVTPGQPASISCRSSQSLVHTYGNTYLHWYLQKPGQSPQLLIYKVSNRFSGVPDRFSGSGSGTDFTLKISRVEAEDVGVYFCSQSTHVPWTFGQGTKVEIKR", "t"),
    ("Hu4F11-77 (antibody, human IgG1, kappa, V domains shown, Humanized, human IgG1 kappa; Hv3-23 A28T S31N T62S heavy + Kv2D-29 N28Q kappa) VH: EVQLLESGGGLVQPGGSLRLSCAASGFTFSNYDMSWVRQAPGKGLEWVSYISRGGGSTYYPDSVKGRFTISRDNSKNTLYLQMNSLRAEDTAVYYCGRHATTAYWYFDVWGQGTMVTVSS VL: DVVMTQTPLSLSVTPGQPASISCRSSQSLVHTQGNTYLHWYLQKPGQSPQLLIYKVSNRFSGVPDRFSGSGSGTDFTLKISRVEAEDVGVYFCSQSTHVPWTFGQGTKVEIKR", "t"),
    ("Hu4F11-32 (antibody, human IgG1, kappa, V domains shown, Humanized, human IgG1 kappa; Sh4F11 Hv3-23 heavy + Hu4F11 Kv2D-29 kappa) VH: EVQLLESGGGLVQPGGSLRLSCAASGFAFSSYDMSWVRQAPGKGLEWVSYISRGGGSTYYPDTVKGRFTISRDNSKNTLYLQMNSLRAEDTAVYYCGRHATTAYWYFDVWGQGTMVTVSS VL: DVVMTQTPLSLSVTPGQPASISCRSSQSLVHTNGNTYLHWYLQKPGQSPQLLIYKVSNRFSGVPDRFSGSGSGTDFTLKISRVEAEDVGVYFCSQSTHVPWTFGQGTKVEIKR", "f"),
    ("Hu4F11-72 (antibody, human IgG1, kappa, V domains shown, Humanized, human IgG1 kappa; Hv3-23 S31H T62S heavy + Kv2D-29 N28H kappa) VH: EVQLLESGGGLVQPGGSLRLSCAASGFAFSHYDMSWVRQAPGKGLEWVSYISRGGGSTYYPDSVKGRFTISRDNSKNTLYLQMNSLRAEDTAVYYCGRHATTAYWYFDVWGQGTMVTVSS VL: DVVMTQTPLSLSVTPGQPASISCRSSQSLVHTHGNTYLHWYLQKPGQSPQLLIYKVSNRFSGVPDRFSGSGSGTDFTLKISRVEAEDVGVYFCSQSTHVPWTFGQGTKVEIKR", "t"),
]
